assay: Compound cytotoxicity in PBMC assay plates by MTS; assay type: cell-based; details: human, PBMCs, listed as of isolate JV-1083
Measured Metric: CC50

{"Molecule": "C[C@H](Cn1cnc2c(N)ncnc21)OCP(=O)(OCOC(=O)C(C)(C)C)Oc1ccccc1 (stereo partly shown) [fumarate]", "Test Value": "27.7 µM"}

###

tested on: HIV-1 isolate 89BZ_167; assay: In vitro efficacy against HIV-1 in fresh PBMCs (reverse transcriptase activity in supernatant), isolate 89BZ_167; assay type: cell-based; conditions: Human immunodeficiency virus 1, PBMC; HIV-1 isolate 89BZ_167, PHA-stimulated fresh human PBMCs, six-seven days
Measured Metric: EC50 (µM)

{"Molecule": "C[C@H](Cn1cnc2c(N)ncnc21)OCP(=O)(OCOC(=O)C(C)(C)C)Oc1ccccc1 (stereo partly shown) [fumarate]", "Test Value": 0.0208}

###

system: HCV replicon; assay: HCV replicon antiviral evaluation assay; format: cell-based; conditions: Hepatitis C virus; concentration inhibiting HCV replicon by 50%, 72 hours; genotype not given

{"Compound": "C[C@H](Cn1cnc2c(N)ncnc21)OCP(=O)(OCOC(=O)C(C)(C)C)Oc1ccccc1 (stereo partly shown) [fumarate]", "Unit Of Measure": "µM", "EC50": 8.38}
